Recorded Encapsulation Efficiency values for a group of molecules are listed next.
assayText: Encapsulation efficiency of lipid nanoparticles, Quant-it Ribogreen RNA assay
Assay type: physicochemical
settings: LNP of lipid/DSPC/cholesterol/PEG-lipid 50:10:38.5:1.5 encapsulating hEPO mRNA
reportedProperty: Encapsulation Efficiency (%)

CCCCCCCCC(CCCCCC)CNC(=O)CCCCN(CCO)CCN(CCCCC(COC(=O)CCCCCCC)COC(=O)CCCCCCC)C1CCCCCCC1 (centres unmarked) = 89.14
CCCCCCCCC(CCCCCC)CNC(=O)CCCCCCN(CCO)CCN(CCCCC(COC(=O)CCCCCCC)COC(=O)CCCCCCC)C1CCCC1 (centres unmarked) = 89.65
CCCCCCCCC(CCCCCC)COC(=O)CCCCCN(CCCCN(CCO)CCCCC(COC(=O)CCCCCCC)COC(=O)CCCCCCC)C1CCCCC1 (centres unmarked) = 90.40
CCCCCCCCC(CCCCCC)CNC(=O)CCCCCN(CCCCCO)CCN(CCCCC(COC(=O)CCCCCCC)COC(=O)CCCCCCC)C1CCCCCC1 (centres unmarked) = 92.20
CCCCCCCCCCCOC(=O)CCCCCN(CCN(CCO)CCCCCC(=O)OCC(CCCCCCCC)CCCCCCCC)C1CCCC1 = 91.06
CCCCCCCC(=O)OCC(COCCN(CCO)CCN(CCOCC(COC(=O)CCCCCCC)COC(=O)CCCCCCC)C1CCC1)COC(=O)CCCCCCC = 89.15
CCCCCCCCCCC(=O)OCC(CCCCN(CCO)CCN(CCCCC(COC(=O)CCCCCCCCCC)COC(=O)CCCCCCCCCC)C1CCC1)COC(=O)CCCCCCCCCC = 91.48
CCCCCCCCC(CCCCCCCC)CC(=O)NCCCCCN(CCN(CCO)CCCCCOC(=O)CC(CCCCCCCC)CCCCCCCC)C1CCCC1 = 92.60
